# TEST SUMMARY: Pharmacokinetics in humans, MRTX1133 formulation, oral, single and multiple doses
# Format: in vivo
# MEASUREMENT CONTEXT: human, plasma, po, 200 mg, multiple oral doses of 200 mg BID, fasted; 4 h; mean of subjects; read-out: Plasma concentration, Mean
MEASURED PARAMETER: concentration at 4 h (ng/mL)

[[record]]
smiles_input = "C#Cc1c(F)ccc2cc(O)cc(-c3ncc4c(N5C[C@H]6CC[C@@H](C5)N6)nc(OC[C@@]56CCCN5C[C@H](F)C6)nc4c3F)c12"
measured_parameter = "concentration at 4 h"
unit = "ng/mL"
reported_result = 6.62

